- Tested system: TDP-43 (Homo sapiens, UniProt Q13148 1-414)
- Sequence (Q13148 whole entry): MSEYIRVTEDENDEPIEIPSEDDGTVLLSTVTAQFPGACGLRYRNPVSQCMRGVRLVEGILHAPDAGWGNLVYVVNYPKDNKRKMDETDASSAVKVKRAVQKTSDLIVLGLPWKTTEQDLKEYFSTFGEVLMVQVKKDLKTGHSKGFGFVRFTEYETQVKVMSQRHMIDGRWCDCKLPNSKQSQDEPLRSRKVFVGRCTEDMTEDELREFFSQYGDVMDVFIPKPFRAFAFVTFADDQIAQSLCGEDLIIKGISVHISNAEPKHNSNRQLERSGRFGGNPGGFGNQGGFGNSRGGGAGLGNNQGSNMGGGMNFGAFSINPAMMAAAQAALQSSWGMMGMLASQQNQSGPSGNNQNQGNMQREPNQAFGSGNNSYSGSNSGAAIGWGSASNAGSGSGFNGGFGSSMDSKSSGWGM
- Assay method text: RNA Bind-n-Seq with designed 260-mer pool; 25 mM Tris-HCl, 150 mM KCl, 3 mM MgCl2, BSA (printed 500 mg/mL), 20 units/mL SUPERase IN; pH not stated; 500 nM RNA pool, 1 h, 4 C; TDP-43 5, 50, 500 nM; high values mean tight binding
- Experimental setup: protein: recombinant; tags: SBP (GST cleaved off with PreScission; pGEX-GST-SBP)
The full ranking holds about 9,900 sequences; the median of “r (bound/input frequency ratio)” is about 0.7, and the highest 2% start at about 6.5. The list comes from a sample in which the highest values are over-represented; it also holds close analogues and randomly drawn sequences.
Observed property: binding signal

Please report the recorded binding signal for ENSMUSG00000061578.1434|Ksr2|139:143;234:238 (ssRNA) RNA: GGGAGUUCUACAGUCCGACGAUCGCUUCGAUAUCCGCAUGCUACAUUGCCAACAUGUUGCUGGGAAAGAAUAUUUGAUUUAGAUGCCAAUCAGGAAGGCAAGUAGGAUGGAUGGAUGAGUGAGUGGAUAGGUAGGUAUAUAAAUGGAUGGAUGGGUGAUGGAUGGGUAAAUGAAUGGAUAGCAUACUGAAUGAAUGGAUGAUGGAUGAAUGGAUGGGUAGGUGGGUAGAUAGGUAUAUGAAUGAAUGGAUGAAUGGAUGGGUGAAUGGAUGGAUAGCAUACUGAAUAAAUGGAUGGAUGGAUGCUCUUGCGGUCGCACUAGUGUGGAAUUCUCGGGUGUCAAGG .
3.79 R (bound/input frequency ratio)
